Data provenance is ChEMBL document CHEMBL4411344.

// Activity lookup, one value per entry
# Experiment notes: Hepatotoxicity in Balb/c mouse infected with Trypanosoma cruzi MHOM/Pe/2011/Arequipa DTU 5 trypomastigotes assessed as increase in total bilirubin level at 20 mg/kg, po once daily for 5 consecutive days starting from day 75 post infection measured on day 127 post infection relative to control
# Format: toxicity, organism-based
# Condition parameters: in vivo
Express the reported value numerically, then name its unit.

Record smiles	Activity
CCCCCCCCCCCCCCCCNc1c(N(C)CCCN(C)C)c(=O)c1=O	10%

Now let's try a different one.
Return reported Activity; argument: `O=C(Cn1ccnc1[N+](=O)[O-])NCc1ccccc1`
20%
